- TEST SYSTEM: STE20-like serine/threonine-protein kinase (Homo sapiens, UniProt Q9H2G2); further: in the data inactive means no Kd found up to 30 µM
- Sequence (Q9H2G2 whole entry): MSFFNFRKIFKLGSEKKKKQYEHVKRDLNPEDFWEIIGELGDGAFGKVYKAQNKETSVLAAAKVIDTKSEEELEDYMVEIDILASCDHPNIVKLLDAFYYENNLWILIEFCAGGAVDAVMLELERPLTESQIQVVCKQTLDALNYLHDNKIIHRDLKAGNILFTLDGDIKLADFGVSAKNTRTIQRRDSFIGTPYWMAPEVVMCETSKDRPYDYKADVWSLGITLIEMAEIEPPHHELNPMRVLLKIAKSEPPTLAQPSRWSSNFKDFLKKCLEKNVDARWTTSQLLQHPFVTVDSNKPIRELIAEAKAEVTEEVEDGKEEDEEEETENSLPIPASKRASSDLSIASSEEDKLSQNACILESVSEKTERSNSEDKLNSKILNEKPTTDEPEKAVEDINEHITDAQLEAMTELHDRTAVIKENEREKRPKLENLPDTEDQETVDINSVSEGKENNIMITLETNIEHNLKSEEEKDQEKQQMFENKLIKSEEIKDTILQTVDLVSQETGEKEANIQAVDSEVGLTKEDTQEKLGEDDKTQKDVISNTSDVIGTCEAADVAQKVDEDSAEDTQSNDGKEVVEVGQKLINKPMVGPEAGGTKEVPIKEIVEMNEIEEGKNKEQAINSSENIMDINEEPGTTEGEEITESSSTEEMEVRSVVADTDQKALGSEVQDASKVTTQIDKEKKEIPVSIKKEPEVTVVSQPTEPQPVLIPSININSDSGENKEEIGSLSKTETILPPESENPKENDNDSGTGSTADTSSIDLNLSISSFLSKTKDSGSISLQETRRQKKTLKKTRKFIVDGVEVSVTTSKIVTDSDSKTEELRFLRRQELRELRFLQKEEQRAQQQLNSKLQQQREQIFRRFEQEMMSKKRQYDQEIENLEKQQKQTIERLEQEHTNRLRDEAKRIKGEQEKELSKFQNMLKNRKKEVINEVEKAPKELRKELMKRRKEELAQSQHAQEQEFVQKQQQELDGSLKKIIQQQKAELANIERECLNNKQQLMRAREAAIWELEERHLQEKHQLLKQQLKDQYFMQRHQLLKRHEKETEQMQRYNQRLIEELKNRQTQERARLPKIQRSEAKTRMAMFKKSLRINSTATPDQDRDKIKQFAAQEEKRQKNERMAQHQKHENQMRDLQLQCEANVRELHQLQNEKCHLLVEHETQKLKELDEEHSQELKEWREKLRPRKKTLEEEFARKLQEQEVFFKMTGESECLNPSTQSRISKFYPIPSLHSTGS
The source made the active and inactive calls.
I would appreciate it if you answered using one of these outcomes: yes = active, no = inactive

Per the records of this test, what outcome belongs to C=CC(=O)Nc1cc2c(Nc3ccc(F)c(Cl)c3)ncnc2cc1C#CC(C)(C)N1CCN(C)CC1 [AV-412 FREE BASE] ?
yes

Per the records of this test, what outcome belongs to O=c1[nH]ccc2cc(OC3CCNCC3)ccc12 [SAR-407899 FREE BASE] ?
no

Per the records of this test, what outcome belongs to `C=CC(=O)N1CCC[C@H](n2c(=O)n(-c3ccc(Oc4ccccc4)cc3)c3c(N)ncnc32)C1` ?
no
